Catalogue of molecules with associated remaining at 6 h, 5 μM
assay: Brain tissue binding by equilibrium dialysis; format: in vitro ADME, mouse; conditions: CD-1, mouse, mouse brain homogenate
readout type: remaining at 6 h, 5 μM (%)

INSERT INTO assay_data (molecule, readout_type, value) VALUES
  ('CCCc1nc2c(C)cc(-c3nc4ccccc4n3C)cc2n1Cc1ccc(-c2ccccc2C(=O)O)cc1 [Telmisartan, reference compound]', 'remaining at 6 h, 5 μM', 108),
  ('COc1cc2ncnc(Nc3cccc(Cl)c3F)c2cc1OCCON1CCN(C)CC1', 'remaining at 6 h, 5 μM', 92.6);

###

test: Metabolic stability in hepatocytes; format: in vitro ADME, beagle dog; settings: beagle, dog, hepatocytes
readout type: hepatocyte CLint at 2 h, 1 µM (µL/min/1e6 cells)

INSERT INTO assay_data (compound_structure_string, value) VALUES
  ('COc1cc2ncnc(Nc3cccc(Cl)c3F)c2cc1OCCON1CCN(C)CC1', 13);
